# Test system: NCI-H226
# Assay notes: NCI tumour cell line growth inhibition, 48 h
Active and inactive are the calls of the source. Rule as the data show it: active = GI50 up to about 1.1 µM and inactive = higher.
Allowed answers: active, inactive

## Task Kindly provide the recorded test outcome for the following compound: CC(=O)OCC1OC(OC2CC3C(C)(C)C(OC(C)=O)CC[C@]3(C)C3CCC45CC4(CC[C@H]5C(C)CC(O)C4OC4(C)C)[C@]23C)C(O)C(O)C1O (some centres undefined)
## Result inactive

## Task Same again, this time with Cn1c(=O)nc2n(CCO)c(-c3ccccc3)c(-c3ccccc3)nc-2c1=O
## Result inactive

## Task Same again, this time with [C-]#[N+]C1(C(=O)OCC)CC1
## Result inactive

## Task Same again, this time with CC(=O)O[C@H]1C[C@H](O[C@H]2[C@@H](O)C[C@H](O[C@H]3[C@@H](O)C[C@H](O[C@H]4CC[C@@]5(C)[C@H](CC[C@@H]6[C@@H]5C[C@@H](O)[C@]5(C)[C@@H](C7=CC(=O)OC7)CC[C@]65O)C4)O[C@@H]3C)O[C@@H]2C)O[C@H](C)[C@H]1O[C@@H]1O[C@H](CO)[C@@H](O)[C@H](O)[C@H]1O [LANATOSIDE C]
## Result active

## Task Same again, this time with Cc1cc(Br)ccc1NC1=CC(=O)C(=O)c2ccccc21
## Result inactive

New cases:
## Task Kindly provide the recorded test outcome for the following compound: CN(C)CCCN1N=Nc2cccc3cccc1c23
## Result inactive

## Task Same again, this time with CN(N)/N=N/c1[nH]cnc1C(N)=O
## Result inactive

## Task Same again, this time with O=C(O)[C@@H]1CSCN1C(=O)[C@@H]1CCC(=S)N1
## Result inactive

## Task Same again, this time with Cc1csc2c(=O)n(COCc3ccccc3)c(=O)[nH]c12
## Result inactive

###

# GI50 per entry
# Tested on: Malme-3M
# Assay notes: NCI tumour cell line growth inhibition, 48 h
Active and inactive are the calls of the source. Rule as the data show it: active = GI50 up to about 1.1 µM and inactive = higher.

Recorded results for 5 molecules are shown here.
## Task Endpoint output: GI50 of O=S(=O)(O)c1c(Cl)c(Cl)c(O)c2ncccc12 . Value?
## Result 10.4 µM (inactive)

## Task Same again, this time with CCCCCCCCCCCCC(SCCNC(=O)CCNC(=O)C(O)C(C)(C)COP(=O)(O)OP(=O)(O)OCC1OC(n2cnc3c(N)ncnc32)C(O)C1OP(=O)(O)O)C(=O)NCC(N)=O (stereo not drawn)
## Result > 100 µM (inactive)

## Task Same again, this time with CC(C)(C)OC(=O)NCCC1CNc2ccccc21 (stereo not drawn)
## Result > 100 µM (inactive)

## Task Same again, this time with O=C(/C=C/c1cccc(Br)c1)c1cccs1
## Result 22.1 µM (inactive)

## Task Same again, this time with CCOC(=O)C(=O)Nc1c(F)cc(F)cc1Br
## Result > 100 µM (inactive)

New cases:
## Task Endpoint output: GI50 of CC1CCCC(C(=O)CC2CC(=O)NC(=O)C2)C1=O (stereo not drawn) . Value?
## Result > 100 µM (inactive)

## Task Same again, this time with CCN(CC)CCOCCOCC1(c2ccc(Cl)c(Cl)c2)CCCCC1
## Result 5.33 µM (inactive)

## Task Same again, this time with COC(=O)C(Cc1c(C2Nc3ccccc3C2CC(NC(=O)CNC(C)=O)C(=O)OC)[nH]c2ccccc12)NC(=O)CNC(C)=O (stereo not drawn)
## Result > 100 µM (inactive)

## Task Same again, this time with COc1cc2ccnc3c2c(c1O)N(C)C=C3
## Result 6.12 µM (inactive)

## Task Same again, this time with COc1cc2c(cc1Cl)[n+]([O-])c(C#N)c(N1CCN(c3ccc([N+](=O)[O-])cc3)CC1)[n+]2[O-]
## Result 14.8 µM (inactive)

## Task Same again, this time with Cn1c2ccccc2c2nc3ccccc3c(Cl)c21
## Result > 100 µM (inactive)

## Task Same again, this time with Oc1[nH]c(Nc2cc(Cl)cc(Cl)c2)nc2ncnc1-2
## Result > 75 µM (inactive)

## Task Same again, this time with Cc1ccc(C)c(NC(=O)C(=O)C(c2cnc3ccc([N+](=O)[O-])cc3n2)[N+](=O)[O-])c1 (stereo not drawn)
## Result > 100 µM (inactive)

Reference for the values: ChEMBL document CHEMBL1201862
